Test system: Enterococcus sp.
Procedure Summary: in vitro antibacterial evaluation, MIC by broth dilution
Type: cell-based
Applied Conditions: broth dilution, 18 hours at 35° C.
Numbered stars: 1 amine (or outer) side, 2 acyl side, 3 side chain; on linkers, the order of the positions; unused ones are H or OH. Square brackets hold non-standard residues; d marks the D form. Peptide text beside a SMILES is read from it. * marks the point of attachment. ξ: configuration not given here. X1 = N=C1NCC(C(O)C(N[*:1])C(=O)[*:2])N1C1OC(CO)C(O)C(O)C1O; ξEnduracididine(βξ-OH,4'ξ) = N=C1NCC(C(O)C(N)C(=O)O)N1; X2 = OCC1OC(OC2C(CO)OC(*)C(O)C2O)C(O)C(O)C1O; Diphenylacetyl = O=C(C(c1ccccc1)c1ccccc1)*; ξPhe(βξ-Me) = CC(c1ccccc1)C(N)C(=O)O
Measured Parameter: MIC Enterococcus faecium (GC 4556)

# query: MIC Enterococcus faecium (GC 4556) of entry CC(c1ccccc1)C1NC(=O)CNC(=O)C(CO)NC(=O)C(C(O)C2CN(Cc3ccc4ccccc4c3)C(=N)N2C2OC(CO)C(O)C(O)C2O)NC(=O)C(C(O)C2CNC(=N)N2)NC(=O)C(Cc2ccc(OC3OC(CO)C(OC4OC(CO)C(O)C(O)C4O)C(O)C3O)cc2)NC1=O (stereo not drawn) [Example 67]
>128 µg/mL

Quick one: CC(c1ccccc1)C1NC(=O)CNC(=O)C(CO)NC(=O)C(CC2CN(Cc3ccccc3)C(=NCc3ccccc3)N2C2OC(CO)C(O)C(O)C2O)NC(=O)C(CC2CN(Cc3ccccc3)C(=NCc3ccccc3)N2Cc2ccccc2)NC(=O)C(Cc2ccc(OC3OC(CO)C(OC4OC(CO)C(O)C(O)C4O)C(O)C3O)cc2)NC1=O (stereo not drawn) [Example 73]
>128 µg/mL

Quick one: CC(c1ccccc1)C1NC(=O)CNC(=O)C(COC(=O)C(c2ccccc2)c2ccccc2)NC(=O)C(C(O)C2CNC(=N)N2C2OC(CO)C(O)C(O)C2O)NC(=O)C(C(O)C2CNC(=N)N2)NC(=O)C(Cc2ccc(OC3OC(CO)C(OC4OC(CO)C(O)C(O)C4O)C(O)C3O)cc2)NC1=O (stereo not drawn) [Example 96a] (cyclo(G[ξPhe(βξ-Me)]Y(X2)[ξEnduracididine(βξ-OH,4'ξ)][X1]S(Diphenylacetyl)); configuration not given here)
>128 µg/mL

###

Tested on: Streptococcus sp.
Procedure Summary: in vitro antibacterial evaluation, MIC by broth dilution
Type: cell-based
Applied Conditions: Streptococcus agalactiae (GC 4564); broth dilution, 18 hours at 35° C.
Measured Parameter: MIC Streptococcus agalactiae (GC 4564)

# query: MIC Streptococcus agalactiae (GC 4564) of entry CSc1ccc(C2OCC3OC(OC4C(CO)OC(Oc5ccc(CC6NC(=O)C(C(C)c7ccccc7)NC(=O)CNC(=O)C(CO)NC(=O)C(C(O)C7CNC(=N)N7C7OC(CO)C(O)C(O)C7O)NC(=O)C(C(O)C7CNC(=N)N7)NC6=O)cc5)C(O)C4O)C(O)C(O)C3O2)cc1 (stereo not drawn)
<0.06 µg/mL

Quick one: CCCc1ccc(C2OCC3OC(OC4C(CO)OC(Oc5ccc(CC6NC(=O)C(C(C)c7ccccc7)NC(=O)CNC(=O)C(CO)NC(=O)C(C(O)C7CNC(=N)N7C7OC(CO)C(O)C(O)C7O)NC(=O)C(C(O)C7CNC(=N)N7)NC6=O)cc5)C(O)C4O)C(O)C(O)C3O2)cc1 (stereo not drawn)
<0.5 µg/mL

Quick one: CC(c1ccccc1)C1NC(=O)CNC(=O)C(CO)NC(=O)C(C(O)C2CNC(=N)N2C2OC(CO)C(O)C(O)C2O)NC(=O)C(C(O)C2CNC(=N)N2)NC(=O)C(Cc2ccc(OC3OC(CO)C(OC4OC5COC(CC67CC8CC(CC(C8)C6)C7)OC5C(O)C4O)C(O)C3O)cc2)NC1=O (stereo not drawn)
<0.06 µg/mL
